# target_system: Gal-3–Gal-1
# Construct: engineered heterodimer in one polypeptide: N-terminal Gal-3 CRD fused directly to Gal-1 CRD; recombinant from bacteria
# assay_remarks: isothermal titration calorimetry
# condition_parameters: 25 °C, pH 7.2, 20 mM phosphate, 10 mM NaCl, 2 mM β-mercaptoethanol; one-set-of-sites model; protein precipitated, dissolved and dialyzed
measure: Kd (µM)

[[record]]
compound = "CC(=O)N[C@H]1C(O)O[C@H](CO)[C@@H](O[C@@H]2O[C@H](CO)[C@H](O)[C@H](O)[C@H]2O)[C@@H]1O (stereo partly shown) [LacNAc]"
measure = "Kd"
observed_measurement = 49.7

